measurement-target: human GLP-1R (Homo sapiens, UniProt P43220)
Construct: gene GLP1R; full-length receptor expressed in HEK293 cells; C347A mutant carries a 1xFLAG tag
Sequence (P43220 24-463): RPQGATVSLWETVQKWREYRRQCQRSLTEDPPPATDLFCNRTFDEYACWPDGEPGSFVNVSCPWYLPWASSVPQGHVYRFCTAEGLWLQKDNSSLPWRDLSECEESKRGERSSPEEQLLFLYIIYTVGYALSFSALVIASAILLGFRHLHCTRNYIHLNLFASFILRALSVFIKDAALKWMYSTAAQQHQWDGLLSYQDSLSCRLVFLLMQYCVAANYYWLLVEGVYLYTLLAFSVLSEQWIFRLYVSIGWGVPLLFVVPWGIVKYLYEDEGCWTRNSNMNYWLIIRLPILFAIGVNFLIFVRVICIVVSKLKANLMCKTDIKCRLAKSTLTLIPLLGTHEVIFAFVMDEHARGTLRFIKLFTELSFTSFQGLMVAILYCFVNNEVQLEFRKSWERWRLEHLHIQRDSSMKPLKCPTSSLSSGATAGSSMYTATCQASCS
protocol: HTRF cAMP accumulation, HEK293 cells
Type: cell-based
assay-conditions: read-out: Compound, EC50 WT (nM) (S.D., n)
// EC50 lookup, one value per entry
Note: unit nM is implicit; provide only the numeric part.

> print(dat)
                                   compound  quantitative.result
1  CC1(C)CC(=O)c2c(S(C)(=O)=O)sc(-c3nnc(-c4ccc(C(C)(C)C)cc4)o3)c2C1                 1500
2  Cc1ccc(-c2cccc(C(=O)NC(Cc3ccc(-c4noc(-c5ccc(NC(=O)OC(C)(C)C)cc5)n4)c(F)c3)C(=O)O)c2)cc1 (stereo not shown)                 1500
3  Cc1nnc(Sc2nc3cc(Cl)c(Cl)cc3nc2C(F)(F)F)s1                  860
4  CC[S+]([O-])c1nc(-c2cccc(OCc3ccccc3)c2)cc(C(F)(F)F)n1 (stereo not shown)                 1300
5  CC(C)(C)Nc1nc2cc(Cl)c(Cl)cc2nc1S(C)(=O)=O                   25

Read off the recorded EC50 for FC(F)(F)c1nc2cc(Cl)c(Cl)cc2nc1Cl
4700

Quickly give me recorded EC50 for CC1(C)CC(=O)c2c(S(C)(=O)=O)sc(C(=O)c3ccc(-c4ccccc4)cc3)c2C1
1430

* * *

measurement-target: human CatL (Homo sapiens)
Construct: gene CTSL; commercial cathepsin L (Calbiochem)
Sequence (P07711 114-288 limits assumed): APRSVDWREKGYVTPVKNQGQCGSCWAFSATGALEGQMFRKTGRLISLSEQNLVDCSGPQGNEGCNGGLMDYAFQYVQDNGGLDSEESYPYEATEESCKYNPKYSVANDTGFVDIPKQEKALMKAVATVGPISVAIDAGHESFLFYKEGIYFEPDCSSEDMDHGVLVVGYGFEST
Sequence (P07711 292-333 limits assumed): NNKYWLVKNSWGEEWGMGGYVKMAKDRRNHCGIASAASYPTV
protocol: fluorogenic Z-Phe-Arg-AMC hydrolysis
Type: biochemical
assay-conditions: read-out: CatL,^c IC50
pIC50: −log10 of the molar value.
parameter-measured: pIC50

Field: example entries. Status: answers known.
> print(dat)
                                   compound         measurement.target  parameter.measured  result
1       O=S(=O)(c1ccccc1)c1nc(-c2ccccc2)ns1  human CatL (Homo sapiens)               pIC50    4.60
2  CS(=NC(=O)Nc1ccc(Cl)cc1)c1sc(Cl)c2c1C(=O)CCC2 (centres unmarked)  human CatL (Homo sapiens)               pIC50    4.92
3                   Clc1nc2ccc3nsnc3c2nc1Cl  human CatL (Homo sapiens)               pIC50  < 4.48
4  CS(=O)(=O)c1nc(-c2ccccc2)cc(-c2ccccc2)c1C#N  human CatL (Homo sapiens)               pIC50  < 4.48
5          Clc1nc2c(-c3ccccc3)nnn2c2ccccc12  human CatL (Homo sapiens)               pIC50  < 4.48
6  CCOC(=O)c1ccc(N2Cc3ccccc3C(=Cc3ccc(Br)cc3)C2=N)cc1  human CatL (Homo sapiens)               pIC50  < 4.48
7  CC[S+]([O-])c1nc(-c2cccc(OCc3ccccc3)c2)cc(C(F)(F)F)n1 (centres unmarked)  human CatL (Homo sapiens)               pIC50  < 4.48

Now for another entry.
Identify measured pIC50 obtained with human CatL (Homo sapiens) for O=[N+]([O-])c1ccc2nc(S(=O)(=O)c3ccc(Cl)cc3)sc2c1 .
5.10
